Each recorded value in this set is attributed to PubChem BioAssay AID1996.

# experimental_setup: buffer; pH 7.4; 200.0 µM
Is solubility kinetic at least 8 µg/mL? Then Criterion met. If not, Criterion not met.

>>> class("Cc1nnc(-c2cnn(C)c2N)n1CCCN1CCOCC1")
"Criterion met"
>>> class("Cc1cc(C)c2sc(C)[n+](CCCS(=O)(=O)[O-])c2c1")
"Criterion met"
>>> class("COc1cc(S(=O)(=O)NCc2ccccn2)ccc1Cl")
"Criterion met"
>>> class("COC(=O)c1[nH]c2c(c1C(=O)OC)CCc1ccccc1-2")
"Criterion met"
>>> class("c1ccc(P(c2ccccn2)c2ccccn2)cc1")
"Criterion met"
>>> class("CC(NC(=O)c1ccco1)C(=O)Nc1nccs1 (stereo not drawn)")
"Criterion met"
>>> class("OCCCc1cn(Cc2ccccc2)c2ccccc12")
"Criterion met"
>>> class("CCCCOC(=O)C1=C(C)NC(=O)NC1c1ccccc1 (stereo not drawn)")
"Criterion met"
>>> class("CC(C)(C)c1ccc(/C=C/C(=O)Nc2cccnc2)cc1")
"Criterion not met"
>>> class("CN(C)c1ccc(C=NCCc2ccc(S(N)(=O)=O)cc2)cc1")
"Criterion met"
>>> class("NC(=O)C1CCN(C(=S)NC2CC3C=CC2C3)CC1 (stereo not drawn)")
"Criterion met"
>>> class("O=C(O)c1ccc(OCCN2CCCC2=O)cc1")
"Criterion met"
>>> class("CCC(C)[C@H](NC(=O)NCc1cccnc1)C(=O)OC (stereo partly drawn)")
"Criterion met"
>>> class("CC(C)CCNc1nc(N)c([N+](=O)[O-])c(N2CCCCCC2)n1")
"Criterion not met"
>>> class("OC(CNCC1COc2ccccc2O1)COc1ccccc1F (stereo not drawn)")
"Criterion met"
>>> class("CCN(CC)S(=O)(=O)c1ccc(N2CCOCC2)c(NC(=O)c2[nH]c(C)c(C(C)=O)c2C)c1")
"Criterion not met"
>>> class("O=C(Nc1ccc(F)cc1)c1ccccc1NC(=O)C1CC=CCC1C(=O)O (stereo not drawn)")
"Criterion met"
>>> class("O=C(Nc1ccncc1)c1cc(S(=O)(=O)N2CCCC2)ccc1Cl")
"Criterion met"
>>> class("CN(C)c1cc2c(cc1NS(=O)(=O)c1ccccc1)n(C)c(=O)n2C")
"Criterion met"
>>> class("CCCSc1sc(C(=O)OC)c(-c2cccs2)c1C#N")
"Criterion not met"
>>> class("Cc1ccnc(NC(=O)c2cc(F)c(F)cc2Cl)n1")
"Criterion met"
>>> class("Cc1cc(Nc2ccc(C)c(C)c2)c2ccccc2n1")
"Criterion met"
>>> class("COc1ccc(-n2c(C)nc3sc4c(c3c2=O)CCCC4)cc1")
"Criterion not met"
>>> class("CC1(C)Nc2ccccc2N(Cc2ccc([N+](=O)[O-])cc2)C1=O")
"Criterion met"
>>> class("Cc1cccc(C)c1OCCN1CCCC1")
"Criterion met"
>>> class("O=C(CS(=O)(=O)c1ccccc1)NCc1ccc(Cl)cc1")
"Criterion not met"
>>> class("C=C(C)c1cccc(C(C)(C)NC(=O)NCc2cccnc2)c1")
"Criterion met"
>>> class("Cc1nc(C)c(-c2csc(Nc3ccc(F)cc3)n2)s1")
"Criterion not met"
>>> class("CC(C)(C)C(=O)N1c2ccccc2CCc2ccccc21")
"Criterion met"
>>> class("COC(=O)c1cc(C(=O)c2ccc(C(C)(C)C)cc2)c[nH]1")
"Criterion met"
>>> class("O=C(NCc1ccccc1Cl)c1cc(C(=O)C2CC2)c[nH]1")
"Criterion not met"
>>> class("O=C(O)c1cc2[nH]c3c(c2cc1Cl)CCCC3")
"Criterion met"
>>> class("COc1cccc(OCC(O)CNC(=O)c2oc3ccc(C)cc3c2C)c1 (stereo not drawn)")
"Criterion met"
>>> class("CCOC(=O)c1c(CCl)nc2ccccc2c1C.Cl")
"Criterion met"
>>> class("COC(=O)c1ccc(S(=O)(=O)c2ccc([N+](=O)[O-])cc2)cc1")
"Criterion not met"
>>> class("Cc1ccc(N2C(=O)CC(Sc3nccc(C)n3)C2=O)cc1 (stereo not drawn)")
"Criterion met"
>>> class("CC(=O)c1c(C)[nH]c(-c2ccccc2)nc1=S")
"Criterion met"
>>> class("Cc1ccc(CSC2=NCCN2C(=O)c2ccc([N+](=O)[O-])cc2)cc1")
"Criterion not met"
>>> class("COc1ccc2c(c1)c1ncn(CC3CCCO3)c(=O)c1n2C (stereo not drawn)")
"Criterion met"
>>> class("Cc1c(C)n(Cc2ccccc2)c2ncnc(NCCN(C)C)c12")
"Criterion met"
>>> class("CC(C)N(C(=O)Nc1ccc2nccnc2c1)C(C)C")
"Criterion not met"
>>> class("CCOC(=O)c1sc(=S)n(-c2ccc(C)cc2)c1N")
"Criterion not met"
>>> class("Cc1ccc(CNC(=O)N2CCN(S(=O)(=O)c3ccccc3)CC2)cc1")
"Criterion met"
>>> class("O=C(CN1C(=O)NC2(CCc3ccccc32)C1=O)NCc1cccc(C(F)(F)F)c1 (stereo not drawn)")
"Criterion met"
>>> class("CCCCn1c(N)c(N(CCC(C)C)C(=O)COC(=O)c2ccc([N+](=O)[O-])s2)c(=O)[nH]c1=O")
"Criterion met"
>>> class("CC(=O)NC(C(=O)N1CCC(c2nc3ccccc3s2)CC1)C(C)C (stereo not drawn)")
"Criterion met"
>>> class("CCC(C)NC(=O)C1c2ccccc2Oc2ccccc21 (stereo not drawn)")
"Criterion not met"
